system: T1, human IL-4 receptor alpha chain on cells (TF-1 cells, primary human T-cell blasts and B cells) (human, UniProt P24394 26-825)
T1 sequence (looked up): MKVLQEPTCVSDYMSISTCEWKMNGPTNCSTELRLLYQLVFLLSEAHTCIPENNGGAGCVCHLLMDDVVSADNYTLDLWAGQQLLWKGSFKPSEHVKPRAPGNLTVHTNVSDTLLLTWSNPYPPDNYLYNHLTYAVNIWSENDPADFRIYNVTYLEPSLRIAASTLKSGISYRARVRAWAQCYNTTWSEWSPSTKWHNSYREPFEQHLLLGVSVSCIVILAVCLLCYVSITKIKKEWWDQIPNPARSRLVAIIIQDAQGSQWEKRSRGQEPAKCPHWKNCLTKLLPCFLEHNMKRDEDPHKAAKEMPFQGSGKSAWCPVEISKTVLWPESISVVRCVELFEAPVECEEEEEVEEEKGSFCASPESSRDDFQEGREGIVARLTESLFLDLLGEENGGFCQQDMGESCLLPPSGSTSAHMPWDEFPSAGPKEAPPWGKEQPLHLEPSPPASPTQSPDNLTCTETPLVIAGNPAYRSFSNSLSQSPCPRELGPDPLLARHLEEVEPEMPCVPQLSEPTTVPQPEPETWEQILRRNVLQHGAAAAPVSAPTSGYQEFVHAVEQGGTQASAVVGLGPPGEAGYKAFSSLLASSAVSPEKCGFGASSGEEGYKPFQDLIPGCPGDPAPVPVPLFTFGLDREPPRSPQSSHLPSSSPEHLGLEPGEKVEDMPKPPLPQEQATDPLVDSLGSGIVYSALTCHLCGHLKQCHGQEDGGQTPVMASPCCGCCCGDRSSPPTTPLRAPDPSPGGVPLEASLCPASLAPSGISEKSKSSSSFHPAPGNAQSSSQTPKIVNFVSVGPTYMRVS
assay.method.text: cell-based or functional assay
recorded.metric: T-cell blast IC50, nM (proliferation to IL-4) (nM)

{"binder": "IL4-RE-K37C, PEGylated with linear 22 kD mPEG-maleimide (ligand, linear 22 kD methoxy-polyethylene glycol-maleimide on Cys 37 (numbered according to wild type IL-4), also called PEG-IL4RE) MHKCDITLQEIIKTLNSLTEQKTLCTELTVTDIFAASCNTTEKETFCRAATVLRQFYSHHEKDTRCLGATAQQFHRHKQLIRFLKRLDRNLWGLAGLNSCPVKEANQSTLENFLERLKTIMDEKDSKCSS", "readout.number": 13.9}
{"binder": "IL4-RE-N38C, PEGylated with linear 22 kD mPEG-maleimide (ligand, linear 22 kD methoxy-polyethylene glycol-maleimide on Cys 38 (numbered according to wild type IL-4), also called PEG-IL4RE) MHKCDITLQEIIKTLNSLTEQKTLCTELTVTDIFAASKCTTEKETFCRAATVLRQFYSHHEKDTRCLGATAQQFHRHKQLIRFLKRLDRNLWGLAGLNSCPVKEANQSTLENFLERLKTIMDEKDSKCSS", "readout.number": 9.94}
{"binder": "IL-4RA (IL-4 double mutein R121D/Y124D, unPEGylated) (ligand, also called BAY 16-9996; IL-4DM) MHKCDITLQEIIKTLNSLTEQKTLCTELTVTDIFAASKNTTEKETFCRAATVLRQFYSHHEKDTRCLGATAQQFHRHKQLIRFLKRLDRNLWGLAGLNSCPVKEANQSTLENFLERLKTIMDEKDSKCSS", "readout.number": 3.22}

All values here come from patent US20090010874A1.
